Data provenance: ChEMBL document CHEMBL3525933

Assay: AUC(0 to infinity) in streptozotocin-induced diabetic Wistar rat at 400 mg/kg, po administered as single dose by HPLC-DAD analysis
Type: ADME, organism-based
Parameters: time infinity, dose 400 mg/kg, route oral
Conditions: plasma
Measurement type: AUC(0-inf) (ng·h/mL)

{"columns": ["Molecule", "Measurement type", "Assay value"],
 "data": [
  ["O=c1c2cc(O)c(O)cc2oc2cc(O)c([C@@H]3O[C@H](CO)[C@@H](O)[C@H](O)[C@H]3O)c(O)c12", "AUC(0-inf)", 8950]
]}

* * *

Experiment: Elimination half life in conventional Wistar rat at 400 mg/kg, po administered as single dose by HPLC-DAD analysis
Format: ADME, organism-based
Set-up: dose 400 mg/kg, route oral
Conditions: in vivo, read-out: beta t1/2 (converted)

{"columns": ["Molecule", "half-life (h)"],
 "data": [
  ["O=c1c2cc(O)c(O)cc2oc2cc(O)c([C@@H]3O[C@H](CO)[C@@H](O)[C@H](O)[C@H]3O)c(O)c12 [MANGIFERIN]", 2.47]
]}

* * *

Assay: MRT(0 to infinity) in conventional Wistar rat at 400 mg/kg, po administered as single dose by HPLC-DAD analysis
Assay type: ADME, organism-based
Design: dose 400 mg/kg, route oral
Settings: in vivo
Measurement type: MRT inf (h)

{"columns": ["Molecule", "Assay value"],
 "data": [
  ["O=c1c2cc(O)c(O)cc2oc2cc(O)c([C@@H]3O[C@H](CO)[C@@H](O)[C@H](O)[C@H]3O)c(O)c12", 7.77]
]}

* * *

Assay: Tmax in pseudo-germ free Wistar rat at 400 mg/kg, po administered as single dose by HPLC-DAD analysis
Format: ADME, organism-based
Design: dose 400 mg/kg, route oral
Details: in vivo

{"columns": ["Compound", "Tmax [h]"],
 "data": [
  ["O=c1c2cc(O)c(O)cc2oc2cc(O)c([C@@H]3O[C@H](CO)[C@@H](O)[C@H](O)[C@H]3O)c(O)c12 [MANGIFERIN]", 2.89]
]}

* * *

Assay: Cmax in streptozotocin-induced diabetic Wistar rat at 400 mg/kg, po administered as single dose by HPLC-DAD analysis
Assay type: ADME, organism-based
Design: dose 400 mg/kg, route oral
Settings: in vivo

{"columns": ["Compound", "Cmax"],
 "data": [
  ["O=c1c2cc(O)c(O)cc2oc2cc(O)c([C@@H]3O[C@H](CO)[C@@H](O)[C@H](O)[C@H]3O)c(O)c12 [MANGIFERIN]", "2000 ng/mL"]
]}

* * *

Assay: Cmax in pseudo-germ free Wistar rat at 400 mg/kg, po administered as single dose by HPLC-DAD analysis
Assay type: ADME, organism-based
Parameters: dose 400 mg/kg, route oral
Settings: in vivo
Measurement type: Cmax (ng/mL)

{"columns": ["Molecule", "Assay value"],
 "data": [
  ["O=c1c2cc(O)c(O)cc2oc2cc(O)c([C@@H]3O[C@H](CO)[C@@H](O)[C@H](O)[C@H]3O)c(O)c12", 452]
]}

* * *

Assay: Elimination half life in pseudo-germ free Wistar rat at 400 mg/kg, po administered as single dose by HPLC-DAD analysis
Assay type: ADME, organism-based
Design: dose 400 mg/kg, route oral
Settings: in vivo, read-out: beta t1/2 (converted)
Measurement type: half-life

{"columns": ["Compound", "Measurement type", "Assay value"],
 "data": [
  ["O=c1c2cc(O)c(O)cc2oc2cc(O)c([C@@H]3O[C@H](CO)[C@@H](O)[C@H](O)[C@H]3O)c(O)c12 [MANGIFERIN]", "half-life", "2.59 h"]
]}

* * *

Assay: AUC(0 to t) in conventional Wistar rat at 400 mg/kg, po administered as single dose by HPLC-DAD analysis
Assay type: ADME, organism-based
Parameters: dose 400 mg/kg, route oral
Details: plasma
Measurement type: AUC(0-t)

{"columns": ["Molecule", "Measurement type", "Assay value"],
 "data": [
  ["O=c1c2cc(O)c(O)cc2oc2cc(O)c([C@@H]3O[C@H](CO)[C@@H](O)[C@H](O)[C@H]3O)c(O)c12", "AUC(0-t)", "3800 ng·h/mL"]
]}

* * *

Assay: AUC(0 to infinity) in conventional Wistar rat at 400 mg/kg, po administered as single dose by HPLC-DAD analysis
Format: ADME, organism-based
Design: time infinity, dose 400 mg/kg, route oral
Conditions: plasma

{"columns": ["Compound", "AUC(0-inf) [ng·h/mL]"],
 "data": [
  ["O=c1c2cc(O)c(O)cc2oc2cc(O)c([C@@H]3O[C@H](CO)[C@@H](O)[C@H](O)[C@H]3O)c(O)c12 [MANGIFERIN]", 3820]
]}

* * *

Test: MRT(0 to infinity) in pseudo-germ free Wistar rat at 400 mg/kg, po administered as single dose by HPLC-DAD analysis
Type: ADME, organism-based
Set-up: dose 400 mg/kg, route oral
Conditions: in vivo

{"columns": ["Molecule", "MRT inf [h]"],
 "data": [
  ["O=c1c2cc(O)c(O)cc2oc2cc(O)c([C@@H]3O[C@H](CO)[C@@H](O)[C@H](O)[C@H]3O)c(O)c12", 7.52]
]}

* * *

Experiment: Tmax in conventional Wistar rat at 400 mg/kg, po administered as single dose by HPLC-DAD analysis
Type: ADME, organism-based
Set-up: dose 400 mg/kg, route oral
Conditions: in vivo
Measurement type: Tmax (min)

{"columns": ["Molecule", "Assay value"],
 "data": [
  ["O=c1c2cc(O)c(O)cc2oc2cc(O)c([C@@H]3O[C@H](CO)[C@@H](O)[C@H](O)[C@H]3O)c(O)c12", 43.8]
]}

* * *

Assay: Elimination half life in streptozotocin-induced diabetic Wistar rat at 400 mg/kg, po administered as single dose by HPLC-DAD analysis
Type: ADME, organism-based
Parameters: dose 400 mg/kg, route oral
Conditions: in vivo, read-out: beta t1/2 (converted)

{"columns": ["Compound", "half-life / min"],
 "data": [
  ["O=c1c2cc(O)c(O)cc2oc2cc(O)c([C@@H]3O[C@H](CO)[C@@H](O)[C@H](O)[C@H]3O)c(O)c12 [MANGIFERIN]", 156]
]}

* * *

Assay: Tmax in streptozotocin-induced diabetic Wistar rat at 400 mg/kg, po administered as single dose by HPLC-DAD analysis
Assay type: ADME, organism-based
Design: dose 400 mg/kg, route oral
Conditions: in vivo
Measurement type: Tmax (h)

{"columns": ["Compound", "Unit of measure", "Assay value"],
 "data": [
  ["O=c1c2cc(O)c(O)cc2oc2cc(O)c([C@@H]3O[C@H](CO)[C@@H](O)[C@H](O)[C@H]3O)c(O)c12 [MANGIFERIN]", "h", 2.25]
]}

* * *

Assay: MRT(0 to infinity) in streptozotocin-induced diabetic Wistar rat at 400 mg/kg, po administered as single dose by HPLC-DAD analysis
Format: ADME, organism-based
Design: dose 400 mg/kg, route oral
Details: in vivo
Measurement type: MRT inf (h)

{"columns": ["Molecule", "Unit of measure", "Assay value"],
 "data": [
  ["O=c1c2cc(O)c(O)cc2oc2cc(O)c([C@@H]3O[C@H](CO)[C@@H](O)[C@H](O)[C@H]3O)c(O)c12", "h", 5.45]
]}

* * *

Test: Apparent oral clearance in pseudo-germ free Wistar rat at 400 mg/kg, po administered as single dose by HPLC-DAD analysis
Type: ADME, organism-based
Parameters: dose 400 mg/kg, route oral
Conditions: in vivo

{"columns": ["Molecule", "Unit of measure", "CL/F"],
 "data": [
  ["O=c1c2cc(O)c(O)cc2oc2cc(O)c([C@@H]3O[C@H](CO)[C@@H](O)[C@H](O)[C@H]3O)c(O)c12 [MANGIFERIN]", "mL/min/kg", 1690]
]}
